# Test system: Staphylococcus aureus EN1252a gyrA^S84L grlA^S80F
# Assay Procedure: microbe, parasite or virus in culture
# Assay type: cell-based
# Condition Details: read-out: Antimicrobial activity (MIC)
MIC reference

Compound	Assay System	MIC
CO[C@H]1/C=C/O[C@@]2(C)Oc3c(C)c(O)c4c(c3C2=O)C(=O)C(N2CCC(N3CCN(c5c(F)cc6c(=O)c(C(=O)O)cn(C7CC7)c6c5Cl)CC3)CC2)=C(NC(=O)/C(C)=C\C=C\[C@H](C)[C@H](O)[C@@H](C)[C@@H](O)[C@@H](C)[C@H](OC(C)=O)[C@@H]1C)C4=O [Example 38]	Staphylococcus aureus EN1252a gyrA^S84L grlA^S80F	0.004 to 0.5 µg/mL
CO[C@H]1/C=C/O[C@@]2(C)Oc3c(C)c(O)c4c(O)c(c(CN5CCN(c6nc7c(cc6F)c(=O)c(C(=O)O)cn7-c6ccc(F)cc6F)CC5)c(O)c4c3C2=O)NC(=O)/C(C)=C\C=C\[C@H](C)[C@H](O)[C@@H](C)[C@@H](O)[C@@H](C)[C@H](OC(C)=O)[C@@H]1C [Example 14]	Staphylococcus aureus EN1252a gyrA^S84L grlA^S80F	0.004 to 0.5 µg/mL
COc1c(N2CCC(NC(=O)C3CN(C4=C5NC(=O)/C(C)=C\C=C\[C@H](C)[C@H](O)[C@@H](C)[C@@H](O)[C@@H](C)[C@H](OC(C)=O)[C@H](C)[C@@H](OC)/C=C/O[C@@]6(C)Oc7c(C)c(O)c(c(c7C6=O)C4=O)C5=O)C3)C2)c(F)cc2c(=O)c(C(=O)O)cn(C3CC3)c12 (mixture of isomers) [Example 44]	Staphylococcus aureus EN1252a gyrA^S84L grlA^S80F	0.004 to 0.5 µg/mL

---

# System: Staphylococcus aureus EN1252a gyrA^S84L grlA^S80F
# Assay Procedure: microbe, parasite or virus in culture
# Format: cell-based
# Condition Details: read-out: Antimicrobial activity (MIC)

Compound	MIC
CO[C@H]1/C=C/O[C@@]2(C)Oc3c(C)c(O)c4c(c3C2=O)C(=O)C(N2CCN(c3cc5c(cc3F)c(=O)c(C(=O)O)cn5C3CC3)CC2)=C(NC(=O)/C(C)=C\C=C\[C@H](C)[C@H](O)[C@@H](C)[C@@H](O)[C@@H](C)[C@H](OC(C)=O)[C@@H]1C)C4=O	0.004 to 0.5 µg/mL
COc1c(N2CCN(C(=O)C3CN(C4=C5NC(=O)/C(C)=C\C=C\[C@H](C)[C@H](O)[C@@H](C)[C@@H](O)[C@@H](C)[C@H](OC(C)=O)[C@H](C)[C@@H](OC)/C=C/O[C@@]6(C)Oc7c(C)c(O)c(c(c7C6=O)C4=O)C5=O)C3)CC2)c(F)cc2c(=O)c(C(=O)O)cn(C3CC3)c12	0.004 to 0.5 µg/mL
COc1c(N2CCCC(NC3CCN(C4=C5NC(=O)/C(C)=C\C=C\[C@H](C)[C@H](O)[C@@H](C)[C@@H](O)[C@@H](C)[C@H](OC(C)=O)[C@H](C)[C@@H](OC)/C=C/O[C@@]6(C)Oc7c(C)c(O)c(c(c7C6=O)C4=O)C5=O)CC3)C2)c(F)cc2c(=O)c(C(=O)O)cn(C3CC3)c12 (mixture of isomers)	0.004 to 0.5 µg/mL
